# Condition details: buffer; pH 7.4; 200.0 µM
Recorded endpoint: log10 solubility kinetic (log10 of the value in mg/mL)
Remember, log10 of solubility kinetic, in mg/mL.

Would you please look over these solved cases?
>  <Mol smiles>
O=C(COc1ccccc1Cl)Nc1nc(-c2ccncc2)cs1

>  <log10 solubility kinetic>
-1.94

$$$$
>  <Mol smiles>
COc1ccc(CC(=O)Nc2ccccc2N2CCCC2)cc1

>  <log10 solubility kinetic>
-1.38

$$$$
>  <Mol smiles>
Cc1cc(Nc2cccc(Br)c2)c2ccccc2n1

>  <log10 solubility kinetic>
-1.92

$$$$
>  <Mol smiles>
CCN1CCC(N2CCN(c3ccc(Cl)cc3)CC2)CC1

>  <log10 solubility kinetic>
-1.80

$$$$
>  <Mol smiles>
COc1ccccc1N1CCN(CC(=O)c2c[nH]c3ccccc23)CC1

>  <log10 solubility kinetic>
-2.18

$$$$
>  <Mol smiles>
CCOC(=O)CCCNC(=O)CSc1nc2ccc(OCC)cc2[nH]1

>  <log10 solubility kinetic>
-1.29

$$$$
>  <Mol smiles>
CS(=O)(=O)N1CCC(C(=O)N2CCN(c3ccccc3F)CC2)CC1

>  <log10 solubility kinetic>
-1.27

$$$$

Note: attention shifts to another entry.
Returns the measured log10 solubility kinetic for the input compound. Input: COc1ccc2ccn(S(=O)(=O)c3ccccc3)c2c1
-2.54
